# MEASURED_ON: NK2 (Homo sapiens)
# Sequence (P21452 whole entry): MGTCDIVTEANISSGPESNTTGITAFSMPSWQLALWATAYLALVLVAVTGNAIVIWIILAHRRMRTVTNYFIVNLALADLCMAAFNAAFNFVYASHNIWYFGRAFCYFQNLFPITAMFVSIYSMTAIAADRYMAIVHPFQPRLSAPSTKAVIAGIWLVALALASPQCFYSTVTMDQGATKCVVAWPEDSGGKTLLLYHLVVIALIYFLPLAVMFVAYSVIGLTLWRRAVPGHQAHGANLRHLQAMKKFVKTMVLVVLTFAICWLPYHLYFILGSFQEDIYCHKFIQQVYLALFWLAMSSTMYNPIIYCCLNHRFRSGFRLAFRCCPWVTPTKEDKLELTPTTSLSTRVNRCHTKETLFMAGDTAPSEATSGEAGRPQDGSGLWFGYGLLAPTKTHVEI
# PROTOCOL_SUMMARY: Signal transduction (ST), intracellular Ca++ (FLIPR), NK2
# Type: cell-based
# TEST_SETTINGS: read-out: pIC50 NK2 (converted)
PROPERTY_NAME: IC50 (nM)

A = O=C(c1ccccc1F)N1CCC(N2CCN([C@H]3CCN(C(=O)c4cc(C(F)(F)F)cc(C(F)(F)F)c4)[C@H](Cc4ccccc4)C3)CC2)C1 (stereo partly drawn)
B = O=C(c1ccoc1)N1CC[C@@H](N2CCN([C@H]3CCN(C(=O)c4cc(C(F)(F)F)cc(C(F)(F)F)c4)[C@H](Cc4ccc(Cl)c(Cl)c4)C3)CC2)C1
Sort A and B by IC50 descending and give the first. Write the label of whichever entry you select.
A
(A: 5010 nM, B: 1580 nM)

I = O=C(c1sccc1COCc1ccccc1)N1CCC(N2CCN([C@H]3CCN(C(=O)c4cc(C(F)(F)F)cc(C(F)(F)F)c4)[C@H](Cc4ccccc4)C3)CC2)C1 (stereo partly drawn)
II = O=C(c1cnccn1)N1CCC(N2CCN(C3CCN(C(=O)c4cc(C(F)(F)F)cc(C(F)(F)F)c4)C(Cc4ccc(Cl)c(Cl)c4)C3)CC2)C1 (stereo not drawn)
III = Cc1cc(C(=O)N2CCC(N3CCN([C@H]4CCN(C(=O)c5cc(C(F)(F)F)cc(C(F)(F)F)c5)[C@H](Cc5ccccc5)C4)CC3)C2)n(C)n1 (stereo partly drawn)
IV = O=C(c1cccs1)N1CCC(N2CCN(C3CCN(C(=O)c4cc(C(F)(F)F)cc(C(F)(F)F)c4)C(Cc4ccc(F)c(F)c4)C3)CC2)C1 (single isomer, unassigned) [Compound 254]
Order the 4 molecules from highest to lowest IC50. Provide the ranking by listing each label in its place in the requested order.
I, III, II, IV

a = O=C(c1ccoc1)N1CCC(N2CCN(C3CCN(C(=O)c4cc(C(F)(F)F)cc(C(F)(F)F)c4)C(Cc4ccc(Cl)c(Cl)c4)C3)CC2)C1 (stereo not drawn)
b = O=C(c1ccsc1)N1CCC(N2CCN(C3CCN(C(=O)c4cc(C(F)(F)F)cc(C(F)(F)F)c4)C(Cc4ccc(F)c(F)c4)C3)CC2)C1 (single isomer, unassigned) [Compound 238]
# argmax over IC50 for candidates a and b Give the label of your selection.
b

* * *

# MEASURED_ON: UniProt P29371
# PROTOCOL_SUMMARY: Signal transduction (ST), intracellular Ca++ (FLIPR), NK3
# Assay type: cell-based
# TEST_SETTINGS: read-out: pIC50 NK3 (converted)
PROPERTY_NAME: IC50 (nM)

O=C(C1CCOC1)N1CCC(N2CCN(C3CCN(C(=O)c4cc(C(F)(F)F)cc(C(F)(F)F)c4)C(Cc4ccc(Cl)c(Cl)c4)C3)CC2)C1 (single isomer, unassigned) [Compound 330] = 398

a = O=C(C1CCOC1)N1CCC(N2CCN(C3CCN(C(=O)c4cc(C(F)(F)F)cc(C(F)(F)F)c4)C(Cc4ccc(Cl)c(Cl)c4)C3)CC2)C1 (single isomer, unassigned) [Compound 290]
b = Cc1nc(S(=O)(=O)N2CCC(N3CCN([C@H]4CCN(C(=O)c5cc(C(F)(F)F)cc(C(F)(F)F)c5)[C@H](Cc5ccccc5)C4)CC3)C2)cn1C (some centres unmarked)
c = COc1cccc(NC(=O)N2CCC(N3CCN(C4CCN(C(=O)c5cc(C(F)(F)F)cc(C(F)(F)F)c5)C(Cc5ccccc5)C4)CC3)C2)c1 (centres unmarked)
d = O=C(c1ccc(F)c(F)c1)N1CCC(N2CCN([C@H]3CCN(C(=O)c4cc(C(F)(F)F)cc(C(F)(F)F)c4)[C@H](Cc4ccccc4)C3)CC2)C1 (some centres unmarked)
Thanks in advance: please rank these 4 entries by IC50, highest to lowest. Would you mind listing the labels in the order requested?
c, d, a, b
(c: 7940 nM, d: 5010 nM, a: 398 nM, b: 251 nM)

* * *

# MEASURED_ON: UniProtKB P25103
# Sequence (P25103 whole entry): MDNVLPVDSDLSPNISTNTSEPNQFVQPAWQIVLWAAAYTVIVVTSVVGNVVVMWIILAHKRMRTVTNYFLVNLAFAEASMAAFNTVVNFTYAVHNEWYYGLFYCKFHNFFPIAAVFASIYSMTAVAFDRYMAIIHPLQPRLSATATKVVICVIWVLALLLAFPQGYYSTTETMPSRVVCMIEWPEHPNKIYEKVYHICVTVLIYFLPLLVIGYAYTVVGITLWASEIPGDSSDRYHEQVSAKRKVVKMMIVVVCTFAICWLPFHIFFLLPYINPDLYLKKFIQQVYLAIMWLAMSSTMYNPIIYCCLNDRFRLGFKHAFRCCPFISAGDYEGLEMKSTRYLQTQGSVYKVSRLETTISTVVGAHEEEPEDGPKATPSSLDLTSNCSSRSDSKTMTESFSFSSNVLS
# PROTOCOL_SUMMARY: Signal transduction (ST), intracellular Ca++ (FLIPR), NK1 antagonistic activity
# Type: cell-based
# TEST_SETTINGS: read-out: pIC50 NK1 (converted)
PROPERTY_NAME: IC50 (nM)

Use these answered entries as a reference point.
CC1(C)OC(=O)C[C@H]1C(=O)N1CCC(N2CCN([C@H]3CCN(C(=O)c4cc(C(F)(F)F)cc(C(F)(F)F)c4)[C@H](Cc4ccccc4)C3)CC2)C1 (stereo partly shown) = 6.31
Cc1cc(C(=O)N2CCC(N3CCN([C@H]4CCN(C(=O)c5cc(C(F)(F)F)cc(C(F)(F)F)c5)[C@H](Cc5ccccc5)C4)CC3)C2)no1 (stereo partly shown) [Compound 46] = 31.6
Cc1nnsc1C(=O)N1CCC(N2CCN(C3CCN(C(=O)c4cc(C(F)(F)F)cc(C(F)(F)F)c4)C(Cc4ccc(Cl)c(Cl)c4)C3)CC2)C1 (stereo not shown) = 12.6
O=C(Cc1ccco1)N1CCC(N2CCN([C@H]3CCN(C(=O)c4cc(C(F)(F)F)cc(C(F)(F)F)c4)[C@H](Cc4ccccc4)C3)CC2)C1 (stereo partly shown) = 25.1

P = O=C(c1cnccn1)N1CCC(N2CCN([C@H]3CCN(C(=O)c4cc(C(F)(F)F)cc(C(F)(F)F)c4)[C@H](Cc4ccccc4)C3)CC2)C1 (stereo partly shown)
Q = CC(=O)N1CCCC1C(=O)N1CCC(N2CCN([C@H]3CCN(C(=O)c4cc(C(F)(F)F)cc(C(F)(F)F)c4)[C@H](Cc4ccccc4)C3)CC2)C1 (stereo partly shown)
R = O=C(C1CCOC1)N1CCC(N2CCN(C3CCN(C(=O)c4cc(C(F)(F)F)cc(C(F)(F)F)c4)C(Cc4ccccc4)C3)CC2)C1 (single isomer, unassigned) [Compound 129]
S = Cc1cc(C(=O)N2CCC(N3CCN([C@H]4CCN(C(=O)c5cc(C(F)(F)F)cc(C(F)(F)F)c5)[C@H](Cc5ccccc5)C4)CC3)C2)n(C)n1 (stereo partly shown)
Order the entries by their reported IC50, beginning at the minimum. Answer by listing the labels in the requested order.
S, Q, P, R

a = O=C(C1CCCCN1)N1CCC(N2CCN(C3CCN(C(=O)c4cc(C(F)(F)F)cc(C(F)(F)F)c4)C(Cc4ccccc4)C3)CC2)C1 (stereo not shown)
b = O=C(c1cc(C(F)(F)F)cc(C(F)(F)F)c1)N1CC[C@H](N2CCN(C3CCN(S(=O)(=O)c4ccc(CCO)s4)C3)CC2)C[C@H]1Cc1ccccc1 (stereo partly shown)
c = O=C(c1ccccc1O)N1CCC(N2CCN([C@H]3CCN(C(=O)c4cc(C(F)(F)F)cc(C(F)(F)F)c4)[C@H](Cc4ccccc4)C3)CC2)C1 (stereo partly shown)
d = O=C(c1ccccc1F)N1CCC(N2CCN([C@H]3CCN(C(=O)c4cc(C(F)(F)F)cc(C(F)(F)F)c4)[C@H](Cc4ccccc4)C3)CC2)C1 (stereo partly shown)
Returns the items ordered by IC50, from maximum to minimum. Provide the ranking by listing each label in its place in the requested order.
d, a, b, c
(d: 31.6 nM, a: 20 nM, b: 10 nM, c: 6.31 nM)

P = N#Cc1ccc(NC(=O)N2CCC(N3CCN([C@H]4CCN(C(=O)c5cc(C(F)(F)F)cc(C(F)(F)F)c5)[C@H](Cc5ccccc5)C4)CC3)C2)cc1 (stereo partly shown)
Q = O=C(C1CCCCC1)N1CCC(N2CCN(C3CCN(C(=O)c4cc(C(F)(F)F)cc(C(F)(F)F)c4)C(Cc4ccc(F)c(F)c4)C3)CC2)C1 (single isomer, unassigned) [Compound 357]
R = O=C(c1cc(C(F)(F)F)cc(C(F)(F)F)c1)N1CCC(N2CCN(C3CCNC3)CC2)CC1Cc1ccc(F)c(F)c1 (single isomer, unassigned) [Compound 225]
S = Cc1nc(C)c(C(=O)N2CCC(N3CCN([C@H]4CCN(C(=O)c5cc(C(F)(F)F)cc(C(F)(F)F)c5)[C@H](Cc5ccccc5)C4)CC3)C2)s1 (stereo partly shown)
Sort ascending by IC50. Lab note: record answer as labels in requested order.
S, Q, R, P

1 = O=C(c1cc(C(F)(F)F)cc(C(F)(F)F)c1)N1CC[C@H](N2CCN([C@@H]3CCN(S(=O)(=O)c4cccs4)C3)CC2)C[C@H]1Cc1ccc(Cl)c(Cl)c1
2 = O=C(C1CCOC1)N1CCC(N2CCN(C3CCN(C(=O)c4cc(C(F)(F)F)cc(C(F)(F)F)c4)C(Cc4ccccc4)C3)CC2)C1 (single isomer, unassigned) [Compound 216]
I need your help: which of the pair 1 , 2 has higher IC50? Let me know the label of the one you choose.
1

* * *

# MEASURED_ON: NK3 (Homo sapiens, UniProt P29371)
# Sequence (P29371 1-465): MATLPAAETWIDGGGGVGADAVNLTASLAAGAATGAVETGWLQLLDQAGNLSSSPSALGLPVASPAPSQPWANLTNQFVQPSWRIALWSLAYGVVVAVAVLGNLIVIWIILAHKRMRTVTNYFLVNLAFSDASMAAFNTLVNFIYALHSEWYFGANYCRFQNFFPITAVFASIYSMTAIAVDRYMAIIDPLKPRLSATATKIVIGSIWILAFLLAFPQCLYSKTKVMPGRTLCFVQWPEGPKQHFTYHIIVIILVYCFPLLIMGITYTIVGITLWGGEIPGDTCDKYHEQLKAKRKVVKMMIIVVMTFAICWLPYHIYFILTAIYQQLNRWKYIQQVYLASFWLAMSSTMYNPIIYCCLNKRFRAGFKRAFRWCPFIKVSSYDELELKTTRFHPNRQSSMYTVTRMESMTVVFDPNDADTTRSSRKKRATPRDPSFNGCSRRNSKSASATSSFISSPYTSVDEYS
# PROTOCOL_SUMMARY: Signal transduction (ST), intracellular Ca++ (FLIPR), NK3
# Type: cell-based
# TEST_SETTINGS: read-out: pIC50 NK3 (converted)
PROPERTY_NAME: IC50 (µM)

O=C(c1ccc(O)cc1)N1CCC(N2CCN([C@H]3CCN(C(=O)c4cc(C(F)(F)F)cc(C(F)(F)F)c4)[C@H](Cc4ccccc4)C3)CC2)C1 (some centres unmarked) = 3.16
O=C(c1cc(C(F)(F)F)cc(C(F)(F)F)c1)N1CC[C@H](N2CCN(C3CCN(S(=O)(=O)c4cccs4)C3)CC2)C[C@H]1Cc1ccc(Cl)c(Cl)c1 (relative stereo) = 0.158
O=C(c1cc(C(F)(F)F)cc(C(F)(F)F)c1)N1CCC(N2CCN(C3CCN(c4noc5ccccc45)C3)CC2)CC1Cc1ccccc1 (centres unmarked) = 2.51
Cc1cccc(C(=O)N2CCC(N3CCN([C@H]4CCN(C(=O)c5cc(C(F)(F)F)cc(C(F)(F)F)c5)[C@H](Cc5ccccc5)C4)CC3)C2)c1C (some centres unmarked) = 0.398
Cn1cccc1C(=O)N1CCC(N2CCN([C@H]3CCN(C(=O)c4cc(C(F)(F)F)cc(C(F)(F)F)c4)[C@H](Cc4ccccc4)C3)CC2)C1 (some centres unmarked) = 0.251

P = O=C(Cc1ccco1)N1CCC(N2CCN([C@H]3CCN(C(=O)c4cc(C(F)(F)F)cc(C(F)(F)F)c4)[C@H](Cc4ccccc4)C3)CC2)C1 (some centres unmarked)
Q = O=C(c1cc(C(F)(F)F)cc(C(F)(F)F)c1)N1CCC(N2CCN(C3CCN(Cc4ccccc4)C3)CC2)CC1Cc1ccc(F)c(F)c1 (single isomer, unassigned) [Compound 222]
R = Cc1nc(C)c(C(=O)N2CCC(N3CCN([C@H]4CCN(C(=O)c5cc(C(F)(F)F)cc(C(F)(F)F)c5)[C@H](Cc5ccccc5)C4)CC3)C2)s1 (some centres unmarked)
List from greatest to least IC50. Enter labels, ranked according to the request.
Q, R, P
(Q: 6.31 µM, R: 3.16 µM, P: 0.398 µM)

A = Cc1nnsc1C(=O)N1CCC(N2CCN(C3CCN(C(=O)c4cc(C(F)(F)F)cc(C(F)(F)F)c4)C(Cc4ccc(Cl)c(Cl)c4)C3)CC2)C1 (centres unmarked)
B = O=C(c1cnccn1)N1CC[C@@H](N2CCN([C@H]3CCN(C(=O)c4cc(C(F)(F)F)cc(C(F)(F)F)c4)[C@H](Cc4ccc(Cl)c(Cl)c4)C3)CC2)C1
Higher IC50: A or B ? API: response body contains the label of the selected item.
A

The origin of these recorded values is patent US7795261B2.
